For each entry below, report its IC50 value.
- Test system: A2780 DDP
- experiment.notes: In vitro cytotoxicity, two cell line test procedure (A2780 DDP)
- Type: cell-based
- recorded.conditions: Homo sapiens, 48 hours exposure, sulforhodamine B, cisplatin-resistant
Structures can show the parent of a compound that is named as a salt.
Express your answer in µg/mL, writing the number without its unit.

QUERY: Please give the measured IC50 for this molecule: Nc1ccccc1-c1ccc2nc3c(C(=O)NCCNCCO)cccn3c(=O)c2c1
RESULT: 6.9

QUERY: Please give the measured IC50 for this molecule: CN(C)CCNC(=O)c1cccn2c(=O)c3cc(-c4cc(C(F)(F)F)cc(C(F)(F)F)c4)ccc3nc12
RESULT: 3

QUERY: Please give the measured IC50 for this molecule: O=C(NCCNCCO)c1cccn2c(=O)c3cc(-c4ccccc4)ccc3nc12 [Example 26, dihydrochloride]
RESULT: 3.5

QUERY: Please give the measured IC50 for this molecule: CN(C)CCNC(=O)c1cccn2c(=O)c3cc(-c4ccccc4-c4ccccc4)ccc3nc12
RESULT: 4.8

QUERY: Please give the measured IC50 for this molecule: Nc1cccc(-c2ccc3nc4c(C(=O)NCCNCCO)cccn4c(=O)c3c2)c1
RESULT: 2.1

QUERY: Please give the measured IC50 for this molecule: CN(C)CCNC(=O)c1cccn2c(=O)c3cc(-c4cccc(-c5ccccc5)c4)ccc3nc12
RESULT: 0.8

QUERY: Please give the measured IC50 for this molecule: COc1ccc(-c2ccc3nc4c(C(=O)NCCN(C)C)cccn4c(=O)c3c2)cc1
RESULT: 3.4

QUERY: Please give the measured IC50 for this molecule: CN(C)CCNC(=O)c1cccn2c(=O)c3ccc(-c4cccc(N)c4)cc3nc12
RESULT: 0.4

* * *

For each entry below, report its IC50 value.
- Test system: A2780 S
- experiment.notes: In vitro cytotoxicity, two cell line test procedure (A2780 S)
- Format: cell-based
- recorded.conditions: Homo sapiens, A2780S; 48 hours exposure, sulforhodamine B
Express your answer in µg/mL, writing the number without its unit.

QUERY: Please give the measured IC50 for this molecule: CN(C)CCNC(=O)c1cccn2c(=O)c3cc(-c4cc5ccccc5c5ccccc45)ccc3nc12 [Example 16]
RESULT: 4.1

QUERY: Please give the measured IC50 for this molecule: CN(C)CCNC(=O)c1cccn2c(=O)c3cc(-c4cccc(-c5ccccc5)c4)ccc3nc12 [Example 15]
RESULT: 0.6

QUERY: Please give the measured IC50 for this molecule: Nc1cccc(-c2ccc3nc4c(C(=O)NCCNCCO)cccn4c(=O)c3c2)c1 [Example 24]
RESULT: 0.6

Reference source: patent US5914327A
